# Test system: hLTBP1-proTGFβ1, hLTBP3-proTGFβ1, hGARP-proTGFβ1 and hLRRC33-proTGFβ1
# assay.details: MSD-SET, binding profile and bias across the four human LLCs
# setup.conditions: ratio of average KD cell-associated / matrix-associated
measure: (H) G/D (fold bias) (fold)
Kindly provide the numeric value in fold only, without the unit symbol.

Lookup: Given Ab22: proTGFβ1 antibody; VH SEQ ID NO: 130, VL SEQ ID NO: 15 (antibody, V domains shown) VH: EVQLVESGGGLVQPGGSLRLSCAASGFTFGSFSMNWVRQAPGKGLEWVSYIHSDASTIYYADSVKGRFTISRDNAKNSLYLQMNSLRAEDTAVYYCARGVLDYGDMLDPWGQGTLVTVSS VL: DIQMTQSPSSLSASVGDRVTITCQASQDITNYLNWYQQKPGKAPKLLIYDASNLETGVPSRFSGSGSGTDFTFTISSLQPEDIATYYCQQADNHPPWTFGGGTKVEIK , state its recorded (H) G/D (fold bias).
Found: 2.71
